Molecular target: T1, GST-FLJ00011 PDZ domain 1 (Homo sapiens (Human)), Q9H5P4
T1 chain: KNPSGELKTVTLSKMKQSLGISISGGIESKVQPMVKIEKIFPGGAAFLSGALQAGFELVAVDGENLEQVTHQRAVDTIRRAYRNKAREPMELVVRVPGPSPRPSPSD
Experiment: G' assay; note: key of the grades not given here

>  <binder>
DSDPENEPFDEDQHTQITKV (modifications not checked) [PTEN]

>  <Classification>
3 A450 class

$$$$
>  <binder>
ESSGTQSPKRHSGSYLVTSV (modifications not checked) [APC-adenomatous polyposis coli protein]

>  <Classification>
1 A450 class

$$$$
>  <binder>
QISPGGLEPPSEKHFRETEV (modifications not checked) [TAX]

>  <Classification>
1 A450 class

$$$$
>  <binder>
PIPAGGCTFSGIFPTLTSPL (modifications not checked) [KIA 1481]

>  <Classification>
2 A450 class

$$$$

Data credit: patent US20050282743A1
